Listing of recorded activation by entry.
- target entity: D(2) dopamine receptor (Homo sapiens)
- procedure text: HTS Assay for Allosteric Agonists of the Human D2 Dopamine Receptor: Primary Screen for Agonists; note: 0% is about no effect
- test parameters: HEK293 T-REx D2 cells, calcium flux agonist mode; at 2 µM; stronger effect = higher value
Among all 340,000 compounds or so, about 1,800 (0.53%) were called active. The full list was thinned out, with actives kept by preference.

# molecule, target entity, activation (%)
records = [
    ("Cc1cccc(-n2c(=O)c3c(c4cc(C)ccc4n3C)n(CC(=O)Nc3ccccc3Cl)c2=O)c1", "D(2) dopamine receptor (Homo sapiens)", 0.838),
    ("O=C(Oc1cccc(O)c1)C1CCCCC1", "D(2) dopamine receptor (Homo sapiens)", 0.57),
    ("Cc1ccc2c(=O)oc(N(C)C)nc2c1", "D(2) dopamine receptor (Homo sapiens)", -0.369),
    ("CCc1ccc2oc(-c3ccc(N)cc3)nc2c1", "D(2) dopamine receptor (Homo sapiens)", 0.79),
    ("CC1CCN(S(=O)(=O)c2ccc3c(c2)N(CC(=O)NCc2ccccc2Cl)C(=O)CO3)CC1", "D(2) dopamine receptor (Homo sapiens)", -0.934),
    ("COc1cc(C(=O)N2CCN(c3ccc(Nc4ccc(C)cc4)nn3)CC2)cc(OC)c1OC", "D(2) dopamine receptor (Homo sapiens)", -0.205),
    ("O=C(OCc1nc2ccccc2[nH]1)C1CCCCC1", "D(2) dopamine receptor (Homo sapiens)", 41.5),
    ("CCN(CC)c1ccc2oc(=O)c(C)nc2c1", "D(2) dopamine receptor (Homo sapiens)", 33.2),
    ("CCc1ccc(CN(Cc2ccco2)C(=O)c2ccccc2Cl)cc1", "D(2) dopamine receptor (Homo sapiens)", 0.564),
    ("COc1ccc(CNC(=O)CCc2c(C)nn(-c3ccc(N4CCCC4)nn3)c2C)cc1", "D(2) dopamine receptor (Homo sapiens)", -0.779),
    ("COc1cccc(CNC(=O)C(=O)NCC(c2cccs2)S(=O)(=O)c2ccccc2)c1 (stereo unspecified)", "D(2) dopamine receptor (Homo sapiens)", 17.6),
]
